Molecular target: T1, human BTLA (human, UniProt Q7Z6A9 31-289)
T1 construct: also called hBTLA; HEK293.hBTLA
T1 sequence: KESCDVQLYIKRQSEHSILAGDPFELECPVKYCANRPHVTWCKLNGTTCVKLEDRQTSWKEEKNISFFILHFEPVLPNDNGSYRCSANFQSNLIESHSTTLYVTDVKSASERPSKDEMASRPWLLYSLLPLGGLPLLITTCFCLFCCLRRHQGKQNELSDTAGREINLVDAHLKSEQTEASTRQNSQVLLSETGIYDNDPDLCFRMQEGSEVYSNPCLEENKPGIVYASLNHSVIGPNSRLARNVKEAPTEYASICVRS
Experiment: flow cytometry, HEK293 cells overexpressing human BTLA

binder: HFB6-4hz17-hG1 (antibody, human IgG1, V domains shown, Humanized variant of HFB6-4, human IgG1 (hG1)) VH: QVQLQESGPGLVKPSGTLSLTCAVSGFNIKDTYIHWVRQPPGKGLEWIGRNDPANGNTKYNPSFKSRATISADKSKNQASLKLSSVTAADTAVYYCASYEGYYERFGYWGQGTLVTVSS VL: EIVLTQSPGTLSLSPGERATLSCRSSQSLLDRDGKTYLNWLQQKPGQAPRRLIYLVSKLDSGIPDRFSGSGSGTDFTLTISRLEPEDFAVYYCWQDTHFPYTFGQGTKLEIK
binding result: binds
//
binder: HFB6-4hz2-hG1 (antibody, human IgG1, V domains shown, Humanized variant of HFB6-4, human IgG1 (hG1)) VH: QVQLVQSGAEVKKPGASVKVSCKTSGFNIKDTYIHWVRQAPGQGLEWIGRNDPANGNTKYAQKFQGRVTMTADTSTSTVYMELSSLRSEDTAVYYCASYEGYYERFGYWGQGTLVTVSS VL: DIQMTQSPSSLSASVGDRVTITCRSSQSLLDRDGKSYLNWLQQKPGKAPKRLIYLVSKLDSGVPSRFSGSGSGTDFTLTISSLQPEDFATYYCWQDTHFPYTFGQGTKLEIK
binding result: binds
//
binder: HFB6-5hz14-hG1 (antibody, human IgG1, V domains shown, Humanized variant of HFB6-5, human IgG1 (hG1)) VH: QVQLVQSGAEVKKPGASVKVSCKASGVNIKDTYMYWVRQAPGQGLEWIGRIDPANGYTRYAQKFQGRATITADTSTSTVYMELSSLRSEDTAVYYCAVYDGYYESFDVWGQGTLVTVSS VL: EIVLTQSPGTLSVSPGERATISCRSSQSLLDSDGKTYLNWLQQKPGQAPRRLIYLVSKRDTGVPDRFSGSGSGTDFTLTISRVEPEDFAVYYCWQGTLFPRTFGQGTKLEIK
binding result: binds
